Source listed as patent US20100111852A1.

- measured.on: T1, human Claudin 1 with C-terminal FLAG tag (human, UniProt O95832 1-211)
- T1 construct: whole, on cells; forced expression in Ba/F3 cells; also called hCLDN1; hCLN1
- T1 sequence (looked up): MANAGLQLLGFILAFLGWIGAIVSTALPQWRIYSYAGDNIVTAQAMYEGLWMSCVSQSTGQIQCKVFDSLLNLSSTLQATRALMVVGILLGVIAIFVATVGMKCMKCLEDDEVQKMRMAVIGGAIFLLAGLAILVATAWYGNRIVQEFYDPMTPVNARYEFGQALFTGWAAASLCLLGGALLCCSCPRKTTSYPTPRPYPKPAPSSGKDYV
- test.summary: flow cytometry, hCLDN1/Ba/F3 cells, 2 ug/mL antibody
value.kind: X geometric mean
Lab note: jot the number down without any unit.

Give the measured X geometric mean for CDN04 (antibody, mouse IgG1, kappa, V domains shown, mouse monoclonal, IgG1/IgK; also called CDN4) VH: EVQLQQSGPELVKPGASMKISCKASGYSFTGYTMNWMKQGHGKNLEWIGLINPYNGGTSYNQKFKDKATLTLDKSSSSAYMELLSLTSEDSAVYYCARGSYGSSYFDYWGQGTTLTVSS VL: DIVMSQSPSSLAVSVGEKVTMSCKSSQSLLYGSNQKNYLAWYQQKPGQSPKLLIYWASTRESGVPDRFTGSGSGTDFTLTISSVKAEDLAVYYCQQYYNFPYTFGGGTKLEIKR 11
